# credit: PubChem BioAssay (NCI)

- run_description: NCI Yeast Anticancer Drug Screen. Data for the rad50 strain (AID 155);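 further: 0% = growth of vehicle-only cultures of the same strain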
- reported_conditions: S. cerevisiae rad50 strain growth inhibition; at 50.0 µM
About 79,000 compounds went through this panel and 15% of them were active in at least one assay; those are over-represented in the sample as a whole. Activity calls are given as the source filed them. No stated cut-off is given here; in the data, active means growth inhibition above about 70%; inactive means the rest.
Reply using exactly one outcome from 1 (active), 0 (inactive)

Look over these answered cases.
>>> print(df.to_string())
                                   compound  qualitative_label
0  CCC(c1ccc(O)c(C2CCCCC2)c1)C(CC)c1ccc(OC(=O)c2ccccc2)c(C2CCCCC2)c1 (stereo not given)                  0
1   CC(SCc1ccccc1)C(=O)O (stereo not given)                  0

query: What was the test verdict on CCN(CC)CCOC(=O)Cc1cccc2c(=O)cc(-c3cccs3)oc12 ?
result: 0

query: What was the test verdict on O=[N+]([O-])/C(C(Cl)=C(Cl)Cl)=C(/Nc1ccccc1)Sc1ccccc1 ?
result: 0

query: What was the test verdict on CCCCCCC(C)c1ccccc1O (stereo not given) (tested in a mixture with another compound) ?
result: 1

query: What was the test verdict on CC(=O)c1cc(-c2ccc(C)cc2)nc2c(C)cc(C)cc12 ?
result: 0

query: What was the test verdict on Clc1ccc2[nH]c(-c3ccccc3)c(-c3ccccn3)c2c1 ?
result: 1

query: What was the test verdict on CCOC(=O)CC(NC(=O)c1[nH]cnc1/N=N/N(C)C)C(=O)OCC (stereo not given) ?
result: 1

query: What was the test verdict on Cc1c(C)n(-c2ccccc2)c2nc(S(C)(=O)=O)nc(S(C)(=O)=O)c12 ?
result: 1

query: What was the test verdict on COc1ccc(NC(=O)OC(C)C)c(OC)c1 ?
result: 0
